- Tested on: Staph. aureus 152 (pen. sens)
- Assay comment: MIC against veterinary bacteria in vitro
- Measurement context: Staphylococcus aureus, 18 h
Assay endpoint: log10 of MIC (log10 of the value in µg/mL)
Answers are given as log10 of MIC in µg/mL.

[[record]]
compound_string = "C/C(=C\\c1ncc(-c2ccc(Br)cc2)o1)C[C@@H]1OC[C@H](C[C@@H]2O[C@H]2[C@@H](C)[C@H](C)O)[C@@H](O)[C@H]1O"
assay_endpoint = "log10 of MIC"
assay_result = -0.51

[[record]]
compound_string = "C/C(=C/c1ncc(-c2ccccc2)o1)C[C@@H]1OC[C@H](C[C@@H]2O[C@H]2[C@@H](C)[C@H](C)O)[C@@H](O)[C@H]1O"
assay_endpoint = "log10 of MIC"
assay_result = 1.30

[[record]]
compound_string = "C/C(=C\\c1cc(-c2ccccc2)on1)C[C@@H]1OC[C@H](C[C@@H]2O[C@H]2[C@@H](C)[C@H](C)O)[C@@H](O)[C@H]1O"
assay_endpoint = "log10 of MIC"
assay_result = 0.40

[[record]]
compound_string = "CSc1cccc(-c2cnc(/C=C(\\C)C[C@@H]3OC[C@H](C[C@@H]4O[C@H]4[C@@H](C)[C@H](C)O)[C@@H](O)[C@H]3O)o2)c1"
assay_endpoint = "log10 of MIC"
assay_result = 0.10

[[record]]
compound_string = "C/C(=C\\c1ncc(-c2ccc(S(C)(=O)=O)cc2)o1)C[C@@H]1OC[C@H](C[C@@H]2O[C@H]2[C@@H](C)[C@H](C)O)[C@@H](O)[C@H]1O"
assay_endpoint = "log10 of MIC"
assay_result = 0.40

[[record]]
compound_string = "COC(=O)CCCCCCCc1cnc(/C=C(\\C)C[C@@H]2OC[C@H](C[C@@H]3O[C@H]3[C@@H](C)[C@H](C)O)[C@@H](O)[C@H]2O)o1"
assay_endpoint = "log10 of MIC"
assay_result = 0.70


Param readout = log10 of MIC; param system = Staph. aureus 152 (pen. sens); param query = "C/C(=C\c1ncc(-c2ccc(Br)s2)o1)C[C@@H]1OC[C@H](C[C@@H]2O[C@H]2[C@@H](C)[C@H](C)O)[C@@H](O)[C@H]1O" ; response: value
-0.51

Param readout = log10 of MIC; param system = Staph. aureus 152 (pen. sens); param query = "C/C(=C\c1ncc(-c2ccc(C=O)cc2)o1)C[C@@H]1OC[C@H](C[C@@H]2O[C@H]2[C@@H](C)[C@H](C)O)[C@@H](O)[C@H]1O" ; response: value
-0.20

Param readout = log10 of MIC; param system = Staph. aureus 152 (pen. sens); param query = "COc1ccc(-c2cnc(/C=C(\C)C[C@@H]3OC[C@H](C[C@@H]4O[C@H]4[C@@H](C)[C@H](C)O)[C@@H](O)[C@H]3O)o2)cc1" ; response: value
0.70
